This section presents sequences with their documented binding signal values.
- ASSAYED_SYSTEM: GST-Nv-NF-kB (Cys allele) (Nematostella vectensis, UniProt E5G601 2-411)
- Sequence: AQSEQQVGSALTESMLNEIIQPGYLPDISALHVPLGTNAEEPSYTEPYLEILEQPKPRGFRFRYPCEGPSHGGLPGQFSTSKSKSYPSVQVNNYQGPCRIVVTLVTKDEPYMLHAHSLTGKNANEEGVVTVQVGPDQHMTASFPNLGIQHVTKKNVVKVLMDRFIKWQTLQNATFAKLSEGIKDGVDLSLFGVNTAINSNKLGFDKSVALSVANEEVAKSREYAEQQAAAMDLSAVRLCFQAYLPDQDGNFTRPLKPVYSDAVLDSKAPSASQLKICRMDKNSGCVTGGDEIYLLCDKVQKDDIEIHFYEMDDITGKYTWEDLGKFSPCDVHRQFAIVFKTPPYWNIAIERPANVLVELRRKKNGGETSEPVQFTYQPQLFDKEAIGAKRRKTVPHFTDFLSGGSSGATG
- ASSAY_TEXT: protein-binding microarray (PBM); PBM: ~300 nM protein, 6 mM HEPES pH 7.8, 80 mM KCl, 0.5 mM EDTA, 0.5 mM EGTA, 6% glycerol, 35 ng/ul poly-dIdC, 1% milk, 1 h, room temperature; Ap Aiptasia and Nv Nematostella (sea anemones) / Co Capsaspora / Aq Amphimedon (sponge) / Dm Drosophila / Hu human; RHD is the Rel homology domain; high values mean tight binding
- CONDITION_INFO: dsDNA, one strand shown
Please give a number only; it is taken to be in z-score.

Example entries and their recorded answers appear below.
CCGATTAACATCATCCCCGTGTCTGATGTTAATCGGGTCTTGATTCGCTTGACGCTGCTG | 3.34
CCGATTAACATCAAATTTCCCGGTGATGTTAATCGGGTCTTGATTCGCTTGACGCTGCTG | 4.99
CCGATTAACATCACGGGATTTCGTGATGTTAATCGGGTCTTGATTCGCTTGACGCTGCTG | 1.88

Exam item: In one line, give reported binding signal of the entry CCGATTAACATCAAGGGAAGCCCTGATGTTAATCGGGTCTTGATTCGCTTGACGCTGCTG .
Marked response: 1.83

Exam item: Indicate its recorded binding signal; the sequence in question is CCGATTAACATCAGGGGGGACGATGATGTTAATCGGGTCTTGATTCGCTTGACGCTGCTG
Marked response: 4.55

Exam item: Identify binding signal associated with the sequence CCGATTAACATCAGTACTCCCCATGATGTTAATCGGGTCTTGATTCGCTTGACGCTGCTG
Marked response: 2.81

Exam item: Look up and state reported binding signal for CCGATTAACATCAAAATTCCCGTTGATGTTAATCGGGTCTTGATTCGCTTGACGCTGCTG
Marked response: 6.87

Exam item: Read the entry CCGATTAACATCAAGTTTCCCCCTGATGTTAATCGGGTCTTGATTCGCTTGACGCTGCTG and write its reported binding signal.
Marked response: 8.22

Exam item: Fill in reported binding signal for this entry: CCGATTAACATCAAGGGGGGAACTGATGTTAATCGGGTCTTGATTCGCTTGACGCTGCTG
Marked response: 5.69

Exam item: Note binding signal for the sequence shown: CCGATTAACATCAAAAATCCCCCTGATGTTAATCGGGTCTTGATTCGCTTGACGCTGCTG
Marked response: 11.4

Exam item: Using the record for CCGATTAACATCACAATTCCCCCTGATGTTAATCGGGTCTTGATTCGCTTGACGCTGCTG , state its measured binding signal.
Marked response: 8.27

Exam item: Read the entry CCGATTAACATCAAATTCCCAGTTGATGTTAATCGGGTCTTGATTCGCTTGACGCTGCTG and write its reported binding signal.
Marked response: 3.74

Exam item: Tell me its binding signal given CCGATTAACATCACAACCCCCCCTGATGTTAATCGGGTCTTGATTCGCTTGACGCTGCTG as the entry.
Marked response: 3.59
